Assignment: determine reported GI50 for the given molecules.
# Tested on: EKVX
# method: NCI tumour cell line growth inhibition, 48 h
The source made the active and inactive calls. Rule as the data show it: active = GI50 up to about 1.1 µM and inactive = higher.

Lookup: What GI50 appears in the records for this molecule with EKVX? CCN(CC)CCNC(=O)c1cc2cc(NC(=O)c3cc4cc(NC(=O)c5cc6cc(N)ccc6[nH]5)ccc4[nH]3)ccc2[nH]1
Found: > 100 µM (inactive)

Lookup: What GI50 appears in the records for this molecule with EKVX? Cc1ccc(S(=O)(=O)NC(=O)C2=C(c3ccccc3)[N-]N(C)c3nc4cccc[n+]4nc32)cc1
Found: 29.1 µM (inactive)

Lookup: What GI50 appears in the records for this molecule with EKVX? Cc1c(C(=O)/C=C/c2ccccc2Cl)[n+]([O-])c2ccccc2[n+]1[O-]
Found: 17.3 µM (inactive)

Lookup: What GI50 appears in the records for this molecule with EKVX? CC1(C)C(=O)C=CC2(C)C1CC(O)C1(C)C2CCC2(C)C(c3ccoc3)OC(=O)C3OC321 (stereo not drawn)
Found: 12.5 µM (inactive)

Lookup: What GI50 appears in the records for this molecule with EKVX? CCn1c2ccccc2c2cc(/N=N\c3ccc(C#N)cc3)ccc21
Found: 33.3 µM (inactive)

Lookup: What GI50 appears in the records for this molecule with EKVX? CO[C@@H](c1ccccc1)[C@H](O)[C@](O)(c1ccccc1)P(=O)(OC)OC
Found: > 100 µM (inactive)

Lookup: What GI50 appears in the records for this molecule with EKVX? C\C=C/C=C/C=C/C(=O)O
Found: 67.3 µM (inactive)

Lookup: What GI50 appears in the records for this molecule with EKVX? CCOc1cc(C=O)ccc1O
Found: > 100 µM (inactive)

---

Assignment: determine reported GI50 for the given molecules.
# System: MCF7
# method: NCI tumour cell line growth inhibition, 48 h
Active and inactive are the calls of the source. No stated cut-off is given here; in the data, active = GI50 up to about 1.1 µM and inactive = higher.

Lookup: Find the recorded GI50 belonging to CCN(CC)CCO/N=C1\CC[C@H]2[C@@H]3CCc4cc(OC)ccc4[C@H]3CC[C@]12C and report it.
Found: 3.66 µM (inactive)

Lookup: Find the recorded GI50 belonging to O=c1[nH]nc(Cc2ccc(Cl)cc2)n1/N=C/c1cccs1 and report it.
Found: 44.3 µM (inactive)

Lookup: Find the recorded GI50 belonging to COC(=O)C1OC2(CCCC3CC32)O[C@H]1C(=O)OC (some centres not stated) and report it.
Found: > 100 µM (inactive)

Lookup: Find the recorded GI50 belonging to FC(F)(F)c1ccc2c(c1)nc(Cc1ccc(Cl)c(Cl)c1)n2CC1CCCN2CCCCC12 (configuration not stated) and report it.
Found: 17.5 µM (inactive)

Lookup: Find the recorded GI50 belonging to C[C@]12CCC(=O)C=C1CC[C@@H]1[C@@H]2[C@@H](O)C[C@@]2(C)[C@H]1CC[C@]2(O)C(=O)COC(=O)C1CCCC1 and report it.
Found: > 100 µM (inactive)

Lookup: Find the recorded GI50 belonging to O=C1CCC2(c3ccc(Cl)cc3)Nc3ncncc3N12 (configuration not stated) and report it.
Found: > 10 µM (inactive)

Lookup: Find the recorded GI50 belonging to N=C(N)SCc1nc(-c2ccc(Cl)cc2)no1 and report it.
Found: 12.9 µM (inactive)

---

# System: SN12C
# method: NCI tumour cell line growth inhibition, 48 h
Calls of active or inactive are those of the source. Rule as the data show it: active = GI50 up to about 1.1 µM and inactive = higher.
Assignment: determine reported GI50 for the given compounds.

Lookup: Find the recorded GI50 belonging to COc1cc(/C=C\C(=O)O)ccc1OCc1ccccc1 and report it.
Found: > 100 µM (inactive)

Lookup: Find the recorded GI50 belonging to CCOC(=O)c1[nH]c2ccccc2c1C(=O)C[C@H](NC(=O)C(F)(F)F)C(=O)OC and report it.
Found: > 100 µM (inactive)

Lookup: Find the recorded GI50 belonging to COc1ccc(C2ON(c3cccc(C)n3)CC=C2C)cc1 (stereo not drawn) and report it.
Found: 70.6 µM (inactive)

Lookup: Find the recorded GI50 belonging to CNC(=O)C(C)C1CCC2(C)C=CC(=O)C(C)=C2C1O (stereo not drawn) and report it.
Found: > 100 µM (inactive)

Lookup: Find the recorded GI50 belonging to COc1ccc(Oc2ccc3cc4c(cc3c2O)OCO4)c2cc(C)oc12 and report it.
Found: 29.6 µM (inactive)

Lookup: Find the recorded GI50 belonging to C=C1C(=O)O[C@H]2[C@H]3O[C@@H](C[C@@H]12)[C@](C)(O)CCCC(C)=CCC[C@H]3C and report it.
Found: 11.9 µM (inactive)

Lookup: Find the recorded GI50 belonging to O=C(O)c1ccccc1NCn1c(=S)sc2ccccc21 and report it.
Found: 35.1 µM (inactive)

Lookup: Find the recorded GI50 belonging to O=C1/C(=C/c2ccc(Cl)cc2)N=C(c2ccccc2)N1c1nc2ccc(Sc3ccccc3)cc2[nH]1 and report it.
Found: 29 µM (inactive)

Lookup: Find the recorded GI50 belonging to C=C1c2nc3ccccc3n2C=C(c2ccc(OC)cc2)N1c1ccc(OC)cc1 and report it.
Found: 17.8 µM (inactive)

Lookup: Find the recorded GI50 belonging to N#CCCN(CCC#N)c1ccc(/C=C2\N=C(c3ccccc3)N(c3ccc(F)cc3)C2=O)cc1 and report it.
Found: > 100 µM (inactive)

Lookup: Find the recorded GI50 belonging to COC1O[C@H]2CCN(C(=O)OCc3ccccc3)[C@H]2[C@H]1OCc1ccccc1 (stereo partly drawn) and report it.
Found: > 100 µM (inactive)

Lookup: Find the recorded GI50 belonging to COc1ccc(C(=O)/C=C/S/C(=N/C#N)SC)cc1 and report it.
Found: 24.4 µM (inactive)

Lookup: Find the recorded GI50 belonging to C\C=C/C=C/C=C/C(=O)O and report it.
Found: > 100 µM (inactive)

Lookup: Find the recorded GI50 belonging to CCN(c1n[n+]2c(-c3ccccc3)csc2s1)c1n[n+]2c(-c3ccccc3)csc2s1 and report it.
Found: > 100 µM (inactive)

Lookup: Find the recorded GI50 belonging to N#C/C(=C\c1cc(Br)c(O)c(Br)c1)c1ccccn1 and report it.
Found: 46.7 µM (inactive)

Lookup: Find the recorded GI50 belonging to Cc1c(N2C(=O)/C(=C/c3ccc(Cl)cc3)N=C2c2ccccc2)c(=O)n(-c2ccccc2)n1C and report it.
Found: 34.1 µM (inactive)

Lookup: Find the recorded GI50 belonging to Cc1c(C(=O)/C=C/c2ccccc2Cl)[n+]([O-])c2ccccc2[n+]1[O-] and report it.
Found: 15.1 µM (inactive)

Lookup: Find the recorded GI50 belonging to N=C(N)SCc1nc(-c2ccc(Cl)cc2)no1 and report it.
Found: 17.8 µM (inactive)

Lookup: Find the recorded GI50 belonging to CCOC(=O)c1oc2cc3c(c4c2c1-c1ccccc1N4C)C=CC(C)(C)O3 and report it.
Found: 40.6 µM (inactive)

Lookup: Find the recorded GI50 belonging to O=C1O/C(=C\c2ccc(O)cc2)C(c2ccc(O)c(Cl)c2)=C1Br and report it.
Found: 15.6 µM (inactive)

Lookup: Find the recorded GI50 belonging to COC(=O)C(Cc1ccccc1)NC(=O)C(CNC(=O)OCc1ccccc1)C(=O)OCc1ccccc1 (stereo not drawn) and report it.
Found: > 100 µM (inactive)

Lookup: Find the recorded GI50 belonging to O=C1/C(=C/c2ccc(Cl)cc2)Oc2cc(O)ccc21 [6-HYDROXY-4'-CHLORO AURONE] and report it.
Found: 29.8 µM (inactive)

Lookup: Find the recorded GI50 belonging to CC1=C(CC2C(=O)N(c3ccccc3)S(=O)(=O)NC2C)C(=O)N(c2ccccc2)S(=O)(=O)N1C (stereo not drawn) and report it.
Found: > 100 µM (inactive)

Lookup: Find the recorded GI50 belonging to C=CC(C)(C)c1cc([C@@H]2COc3cc(O)ccc3C2=O)c(O)c(O)c1OC and report it.
Found: 17.6 µM (inactive)

Lookup: Find the recorded GI50 belonging to CSc1ncc2c(n1)-c1ccccc1OC2 and report it.
Found: 39.7 µM (inactive)

Lookup: Find the recorded GI50 belonging to C/C=C(/CCC1NCCc2c1[nH]c1ccccc21)[Si](C)(C)C (stereo not drawn) and report it.
Found: 5.61 µM (inactive)

Lookup: Find the recorded GI50 belonging to [N-]=[N+]=NC1(c2ccccc2)C(=O)c2cccc3c4ccccc4n(c23)C1=O (stereo not drawn) and report it.
Found: > 100 µM (inactive)

Lookup: Find the recorded GI50 belonging to CNC(=O)CNC(=O)N(C[C@@H]1CCCN1C(=O)[C@H](CC(C)C)NC(=O)OC(C)(C)C)C(C)C and report it.
Found: > 100 µM (inactive)

---

# System: HT-29
# method: NCI tumour cell line growth inhibition, 48 h
Active and inactive are the calls of the source. Cut-off read from the data, not from the text of the source: active = GI50 up to about 1.1 µM and inactive = higher.
assay-metric: GI50

Lookup: Find the recorded GI50 belonging to Cc1ccc(/C=C2\CCCC\C2=N\O)cc1 and report it.
Found: 51.8 µM (inactive)

Lookup: Find the recorded GI50 belonging to Cc1c(N2C(=O)/C(=C/c3ccc(Cl)cc3)N=C2c2ccccc2)c(=O)n(-c2ccccc2)n1C and report it.
Found: 26.6 µM (inactive)

Lookup: Find the recorded GI50 belonging to Oc1ccccc1/C=N/N1C(=S)N(C23CC4CC(CC(C4)C2)C3)C(=N\c2ccccc2)/C1=N/c1ccccc1 and report it.
Found: 29.6 µM (inactive)

Lookup: Find the recorded GI50 belonging to CC(C)C1(O)C(=O)N(c2c(F)c(F)c(F)c(F)c2F)C(=S)N1CCSc1ccccc1 (stereo not given) and report it.
Found: 18.4 µM (inactive)

Lookup: Find the recorded GI50 belonging to CS(=O)(=O)N/N=C/CN1C(=O)c2ccccc2C1=O and report it.
Found: > 100 µM (inactive)

Lookup: Find the recorded GI50 belonging to O=C(CCC(=O)OCC1OC(O)(CC2OC(CO)C(O)C(O)C2O)C(O)C1O)OCc1ccccc1 (stereo not given) and report it.
Found: > 100 µM (inactive)

Lookup: Find the recorded GI50 belonging to NNC(=S)NCCNC(=S)NN and report it.
Found: > 100 µM (inactive)

Lookup: Find the recorded GI50 belonging to CC1(c2ccc(Cl)cc2)c2ccccc2C(=O)N1CCCN1C(=O)c2ccccc2C1=O (stereo not given) and report it.
Found: 32.2 µM (inactive)

Lookup: Find the recorded GI50 belonging to CNC(=O)CNC(=O)N(C[C@@H]1CCCN1C(=O)[C@H](CC(C)C)NC(=O)OC(C)(C)C)C(C)C and report it.
Found: > 100 µM (inactive)

Lookup: Find the recorded GI50 belonging to CO[C@H]1c2cccc3cccc(c23)[C@@H]1n1[nH]c(=O)n(C(C)(C)C)c1=O and report it.
Found: > 100 µM (inactive)

Lookup: Find the recorded GI50 belonging to O=c1c(Sc2ncccn2)c(Sc2ncccn2)cnn1CCl and report it.
Found: 1.98 µM (inactive)

Lookup: Find the recorded GI50 belonging to CC1NOC(=O)C1/N=N/c1ccccc1Br (stereo not given) and report it.
Found: 39.6 µM (inactive)

Lookup: Find the recorded GI50 belonging to COc1ccc(-c2nc(-c3cnccn3)n(Cc3ccccc3)n2)cc1 and report it.
Found: > 100 µM (inactive)

Lookup: Find the recorded GI50 belonging to CC(=O)C1C(=O)C(=O)N(c2ccc(Cl)cc2C)C1=O (stereo not given) and report it.
Found: > 100 µM (inactive)

Lookup: Find the recorded GI50 belonging to Cc1nc(N)nc2ccccc12 and report it.
Found: > 100 µM (inactive)

Lookup: Find the recorded GI50 belonging to COc1ccccc1C[C@@H]1OC2(C=CC(=O)C=C2)O[C@H]1Cc1ccccc1OC and report it.
Found: 9.02 µM (inactive)

Lookup: Find the recorded GI50 belonging to O=C1c2cccc3cccc(c23)C(=O)N1O and report it.
Found: 51.8 µM (inactive)

Lookup: Find the recorded GI50 belonging to CCCCNC(=O)OCCN=C1c2ccccc2C(Br)C(Br)c2ccccc21 (stereo not given) and report it.
Found: 12.5 µM (inactive)

Lookup: Find the recorded GI50 belonging to NC(CCCCNCc1ccccc1)C(=O)O (stereo not given) and report it.
Found: > 100 µM (inactive)

Lookup: Find the recorded GI50 belonging to COc1cc([C@@H]2c3cc4c(cc3[C@@H](NCCCN(C)C)[C@H]3COC(=O)[C@H]23)OCO4)cc(OC)c1O and report it.
Found: 0.916 µM (active)

Lookup: Find the recorded GI50 belonging to CC1=C(C(=O)NCc2ccccc2)C(c2ccc(Cl)c(Cl)c2)C(C(=O)NCc2ccccc2)=C(C)N1 and report it.
Found: > 100 µM (inactive)

Lookup: Find the recorded GI50 belonging to CN1c2ccccc2N(C(=O)c2ccc([N+](=O)[O-])cc2)C(CC(=O)O)c2cccn21 (stereo not given) and report it.
Found: > 100 µM (inactive)

Lookup: Find the recorded GI50 belonging to CSc1ncc2c(n1)-c1ccccc1OC2 and report it.
Found: 40.4 µM (inactive)

Lookup: Find the recorded GI50 belonging to COC(=O)[C@@]12C(=O)C=CC(=O)[C@@H]1C1C(=CC2COC(C)=O)O[C@@H]2OC3(CCCCC3)O[C@H]12 (stereo not given in full) and report it.
Found: 6.01 µM (inactive)

Lookup: Find the recorded GI50 belonging to COc1cc(-c2nc3cc(F)ccc3s2)ccc1O and report it.
Found: 39.3 µM (inactive)
